test system: SARS-CoV-2 USA_WA1/2020; assay: microbe, parasite or virus in culture; format: cell-based; conditions: Example C (Table 3)
Counter-ions that a name gives are not always drawn. Residues, ends and D or L forms follow the SMILES beside them. *: point of attachment. Cbz = O=C(OCc1ccccc1)*; CH2F = FC*
Threshold rule: Maximum Inhibition greater than or equal to 70% is rule met; below that, rule not met.

- molecule: "CCN(CC)CCCC(C)Nc1ccnc2cc(Cl)ccc12 (stereo not drawn)"
  qualitative.label: "rule met"
- molecule: "CCC(CC)COC(=O)[C@H](C)N[P@](=O)(OC[C@H]1O[C@@](C#N)(c2ccc3c(N)ncnn23)[C@H](O)[C@@H]1O)Oc1ccccc1"
  qualitative.label: "rule met"
- molecule: "CCOC(=O)[C@H]1O[C@@H]1C(=O)N[C@@H](CC(C)C)C(=O)NCCC(C)C"
  qualitative.label: "rule met"
- molecule: "CC(C)C[C@H](NC(=O)OCc1ccccc1)C(=O)N[C@@H](CC(C)C)C(=O)N[C@@H](Cc1ccc(O)cc1)C(=O)CF [Calpain Inhibitor IV] (Cbz-Leu-Leu-Tyr-CH2F)"
  qualitative.label: "rule met"
- molecule: "CN(Cc1cc(Br)cc(Br)c1N)C1CCCCC1 [BHH, Bromhexine hydrochloride]"
  qualitative.label: "rule met"
- molecule: "Nc1c(Br)cc(Br)cc1CN[C@H]1CC[C@H](O)CC1 [AMB, hydrochloride]"
  qualitative.label: "rule not met"

----------
test: in vitro; conditions: human

- molecule: "CCN(CC)CCCC(C)Nc1ccnc2cc(Cl)ccc12 (stereo not shown)"
  CC50 at 72 h, µM: 18.4

----------
tested on: Vero E6 cells; settings: read-out: Cytotoxicity CC50; Vero E6, 72 hours; Example C (Table 4)
Residues, ends and D or L forms follow the SMILES beside them. *: point of attachment. Cbz = O=C(OCc1ccccc1)*; CH2F = FC*

- compound: "CC(C)C[C@H](NC(=O)OCc1ccccc1)C(=O)N[C@@H](CC(C)C)C(=O)N[C@@H](Cc1ccc(O)cc1)C(=O)CF [Calpain Inhibitor IV] (Cbz-Leu-Leu-Tyr-CH2F)"
  CC50: "> 7.17 µM"

----------
test system: SARS CoV-2 nanoluciferase reporter virus; assay: microbe, parasite or virus in culture; format: cell-based; conditions: listed as Paxlovid; read-out: IC50, viral replication, Nanoluciferase Reporter Virus Assay
pIC50: −log10 of the molar value.

- item.smiles: "CC(C)(C)[C@H](NC(=O)C(F)(F)F)C(=O)N1C[C@H]2[C@@H]([C@H]1C(=O)N[C@H](C#N)C[C@@H]1CCNC1=O)C2(C)C"
  tgt: "SARS CoV-2 nanoluciferase reporter virus"
  pIC50: 7.30

----------
test system: SARS-CoV-2 USA_WA1/2020; assay: microbe, parasite or virus in culture; type: cell-based; conditions: Vero E6; Example B, highest concentration tested 30 μM; read-out: IC50 against SARS-CoV-2 infection induced CPE
Residues, ends and D or L forms follow the SMILES beside them. *: point of attachment. Cbz = O=C(OCc1ccccc1)*; CH2F = FC*

- molecule: "CC(C)C[C@H](NC(=O)OCc1ccccc1)C(=O)N[C@@H](CC(C)C)C(=O)N[C@@H](Cc1ccc(O)cc1)C(=O)CF [Calpain Inhibitor IV] (Cbz-Leu-Leu-Tyr-CH2F)"
  tgt: "SARS-CoV-2 USA_WA1/2020"
  IC50: "0.29 µM"

Origin of the recorded values: patent US20240285552A1
